# experiment_summary: Quantitative High-Throughput drug screen in 47 multiple myeloma cell lines against the NCATS MIPE library collection: KMS11_JCRBsus cell viability assay (AID 1919873); also: potency is read from the fitted curve at half-maximal effect; nearly all actives have a fitted effect of over 50% in size
# measurement_setup: KMS11 myeloma viability, CellTiter-Glo ATP luminescence, 48 h; series mostly up to 45.8 µM
Records with an inconclusive call do not appear. Calls of active or inactive are those of the source. Calls follow the shape of the dose curve; as a rule, active = well fitted cell-killing curve with a large enough effect; inconclusive = small, poorly fitted or top-dose-only effect, or effect the other way; inactive = no such curve, though single readings can be large or run the other way.
measured_endpoint: Potency

>>> print(df.to_string())
                                   molecule     measured_value
0  Nc1ncnc2c1c(-c1cccc(OCc3ccccc3)c1)cn2C1CC(CN2CCCC2)C1 (stereo not given)    372 nM (active)
1  COCCn1c2c([n+](Cc3cnccn3)c1C)C(=O)c1ccccc1C2=O   13.2 nM (active)
2  CNC(=O)c1ccccc1Nc1nc(Nc2ccc(N3CCOCC3)cc2OC)ncc1Cl    372 nM (active)
3  CCCCN1CCC(CNC(=O)c2c3n(c4ccccc24)CCCO3)CC1  13200 nM (active)
4  CC[C@H]1CN2CCc3cc(OC)c(OC)cc3[C@H]2C[C@@H]1C[C@@H]1NCCc2cc(OC)c(OC)cc21    166 nM (active)
5  CC(C)c1nn(-c2c(Cl)cccc2Cl)c2nc(Cc3ccc(OCCO)cc3)[nH]c(=O)c12   52.6 nM (active)
6  CC(C)CC(=O)Nc1n[nH]c2c1CN(C(=O)C1CCN(C)CC1)C2(C)C   1480 nM (active)
7  COc1cc2c(Nc3ccc(NC(=O)c4ccccc4)cc3)ncnc2cc1OCCCN1CCOCC1  10500 nM (active)
8  COC(=O)Nc1nc2ccc(C(=O)c3ccc(F)cc3)cc2[nH]1    296 nM (active)

Origin of measurements: PubChem BioAssay (NCATS)
